B1: ADAMTS4 (parent)
chain: SFRKFRYGYNNVVTIPAGATHILV

- Variants of: B1
- assayNotes: protein stability index of a GFP-peptide fusion (GPS, HEK-293T) (PSI 1-6); higher = more stable;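 note: lentivirally expressed fusions sorted by FACS into six bins by GFP to DsRed ratio, PSI derived from sequencing read proportions per bin multiplied by bin number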
- settings: c terminus: a fixed tail appended

>  <recordSequence>
SFRKFRYGYNNVVVIPAGATHILV [T14V]

>  <protein stability index>
2.61

$$$$
>  <recordSequence>
SFRKFRYGYNNVVTIPAGATHILE [V24E]

>  <protein stability index>
2.34

$$$$
>  <recordSequence>
SFRKFRYGYNNVVTIPAGATHILN [V24N]

>  <protein stability index>
1.66

$$$$
>  <recordSequence>
SFRKFRYGYNNVVTISAGATHILV [P16S]

>  <protein stability index>
2.5

$$$$
>  <recordSequence>
SFRKFRYGYNNVVMIPAGATHILV [T14M]

>  <protein stability index>
3

$$$$
>  <recordSequence>
SFRKFRYGYNNVVTIPAIATHILV [G18I]

>  <protein stability index>
1.62

$$$$
>  <recordSequence>
SFRKFRYPYNNVVTIPAGATHILV [G8P]

>  <protein stability index>
2.38

$$$$
>  <recordSequence>
SFRKFRYGYNNWVTIPAGATHILV [V12W]

>  <protein stability index>
2.09

$$$$
>  <recordSequence>
SFRKFRYGYNEVVTIPAGATHILV [N11E]

>  <protein stability index>
2.07

$$$$
>  <recordSequence>
SVRKFRYGYNNVVTIPAGATHILV [F2V]

>  <protein stability index>
1.99

$$$$
>  <recordSequence>
SFRKFRYGYNSVVTIPAGATHILV [N11S]

>  <protein stability index>
2.94

$$$$
>  <recordSequence>
SHRKFRYGYNNVVTIPAGATHILV [F2H]

>  <protein stability index>
1.68

$$$$
>  <recordSequence>
SFRKFRYGYNNVVTIPAGAAHILV [T20A]

>  <protein stability index>
2.32

$$$$
>  <recordSequence>
SFRKFRYGYENVVTIPAGATHILV [N10E]

>  <protein stability index>
1.56

$$$$
>  <recordSequence>
SFRKFRYGYNNVVTIPGGATHILV [A17G]

>  <protein stability index>
1.95

$$$$
>  <recordSequence>
SFRKSRYGYNNVVTIPAGATHILV [F5S]

>  <protein stability index>
1.87

$$$$
>  <recordSequence>
SFRKFRYGYNNVVTIPAGATHILA [V24A]

>  <protein stability index>
1.52

$$$$
>  <recordSequence>
SFRKFRYGYNNVFTIPAGATHILV [V13F]

>  <protein stability index>
2.6

$$$$
>  <recordSequence>
SFRKFRYGYNNVVTIQAGATHILV [P16Q]

>  <protein stability index>
2.25

$$$$
>  <recordSequence>
SFRKFRLGYNNVVTIPAGATHILV [Y7L]

>  <protein stability index>
2.46

$$$$
>  <recordSequence>
SFRKFRYGYNNVVTIPAGGTHILV [A19G]

>  <protein stability index>
1.22

$$$$
>  <recordSequence>
AFRKFRYGYNNVVTIPAGATHILV [S1A]

>  <protein stability index>
4.18

$$$$
>  <recordSequence>
SFRKFRYGYNNVVTIPAGATHILW [V24W]

>  <protein stability index>
1.94

$$$$
>  <recordSequence>
SFRKFRYGYNNQVTIPAGATHILV [V12Q]

>  <protein stability index>
1.26

$$$$
>  <recordSequence>
YFRKFRYGYNNVVTIPAGATHILV [S1Y]

>  <protein stability index>
2.22

$$$$
>  <recordSequence>
SFRKFRYGYNNVVTIPAVATHILV [G18V]

>  <protein stability index>
1.63

$$$$
>  <recordSequence>
SFRKFRYGYNNVVTMPAGATHILV [I15M]

>  <protein stability index>
2.28

$$$$
>  <recordSequence>
SFRKFRYGYNTVVTIPAGATHILV [N11T]

>  <protein stability index>
2.59

$$$$
>  <recordSequence>
SFRKFRDGYNNVVTIPAGATHILV [Y7D]

>  <protein stability index>
2.07

$$$$
>  <recordSequence>
SARKFRYGYNNVVTIPAGATHILV [F2A]

>  <protein stability index>
1.94

$$$$
>  <recordSequence>
SFRKFRYGPNNVVTIPAGATHILV [Y9P]

>  <protein stability index>
1.76

$$$$
>  <recordSequence>
SFRKFRYGYVNVVTIPAGATHILV [N10V]

>  <protein stability index>
1.81

$$$$
>  <recordSequence>
SFRKFRYGENNVVTIPAGATHILV [Y9E]

>  <protein stability index>
1.71

$$$$
>  <recordSequence>
SFNKFRYGYNNVVTIPAGATHILV [R3N]

>  <protein stability index>
2.89

$$$$
>  <recordSequence>
SFRKFGYGYNNVVTIPAGATHILV [R6G]

>  <protein stability index>
2.57

$$$$
>  <recordSequence>
SFRKFSYGYNNVVTIPAGATHILV [R6S]

>  <protein stability index>
2.95

$$$$
>  <recordSequence>
SFRKFRYGYNNVVTIPAGATHILP [V24P]

>  <protein stability index>
1.64

$$$$
>  <recordSequence>
SFRKFRYGYNNIVTIPAGATHILV [V12I]

>  <protein stability index>
3.16

$$$$
>  <recordSequence>
TFRKFRYGYNNVVTIPAGATHILV [S1T]

>  <protein stability index>
1.61

$$$$
>  <recordSequence>
SFRKFRYGYNNVVTIPAGATHHLV [I22H]

>  <protein stability index>
1.8

$$$$
>  <recordSequence>
SFRKFRYHYNNVVTIPAGATHILV [G8H]

>  <protein stability index>
3.15

$$$$
>  <recordSequence>
SFRKFRYFYNNVVTIPAGATHILV [G8F]

>  <protein stability index>
2.48

$$$$
>  <recordSequence>
DFRKFRYGYNNVVTIPAGATHILV [S1D]

>  <protein stability index>
2.25

$$$$
>  <recordSequence>
SFRKFRYGYNNVVTIAAGATHILV [P16A]

>  <protein stability index>
2.65

$$$$
>  <recordSequence>
SFRKFRYGYNNVVTIPAGAHHILV [T20H]

>  <protein stability index>
1.63

$$$$
>  <recordSequence>
SFRKFRYWYNNVVTIPAGATHILV [G8W]

>  <protein stability index>
3.33

$$$$
>  <recordSequence>
SFRKFRYGYNNVVTIYAGATHILV [P16Y]

>  <protein stability index>
2.49

$$$$
>  <recordSequence>
SFRKFRYGYNVVVTIPAGATHILV [N11V]

>  <protein stability index>
2.57

$$$$
>  <recordSequence>
QFRKFRYGYNNVVTIPAGATHILV [S1Q]

>  <protein stability index>
2.67

$$$$
>  <recordSequence>
SFRKFRYGYNNVVTIPMGATHILV [A17M]

>  <protein stability index>
1.51

$$$$
>  <recordSequence>
SFRKHRYGYNNVVTIPAGATHILV [F5H]

>  <protein stability index>
1.66

$$$$
>  <recordSequence>
SFRKFRYGYNNVVTIPAGANHILV [T20N]

>  <protein stability index>
1.85

$$$$
>  <recordSequence>
SFRKFRYGYNNVVTITAGATHILV [P16T]

>  <protein stability index>
1.36

$$$$
>  <recordSequence>
SFRKFRYGYNNVVTNPAGATHILV [I15N]

>  <protein stability index>
1.57

$$$$
>  <recordSequence>
SFRKFRYGYNNVVTIPSGATHILV [A17S]

>  <protein stability index>
1.78

$$$$
>  <recordSequence>
SFRKFRYGYNWVVTIPAGATHILV [N11W]

>  <protein stability index>
1.9

$$$$
>  <recordSequence>
SFRKFRYGYNNVVTIPATATHILV [G18T]

>  <protein stability index>
2.71

$$$$
>  <recordSequence>
SFRKFRYGYNNVTTIPAGATHILV [V13T]

>  <protein stability index>
2.11

$$$$
>  <recordSequence>
SFRKFRYGYNNVVTIPAGATSILV [H21S]

>  <protein stability index>
2.3

$$$$
>  <recordSequence>
SFRKFRYSYNNVVTIPAGATHILV [G8S]

>  <protein stability index>
3.58

$$$$
>  <recordSequence>
FFRKFRYGYNNVVTIPAGATHILV [S1F]

>  <protein stability index>
2.34

$$$$
>  <recordSequence>
SFRKFFYGYNNVVTIPAGATHILV [R6F]

>  <protein stability index>
3.68

$$$$
>  <recordSequence>
SFRKFRYGYNNTVTIPAGATHILV [V12T]

>  <protein stability index>
3.03

$$$$
>  <recordSequence>
SFRKFRYGYNNVVHIPAGATHILV [T14H]

>  <protein stability index>
2.92

$$$$
>  <recordSequence>
SFRDFRYGYNNVVTIPAGATHILV [K4D]

>  <protein stability index>
1.76

$$$$
>  <recordSequence>
SFRKFRYKYNNVVTIPAGATHILV [G8K]

>  <protein stability index>
2.4

$$$$
>  <recordSequence>
SFRKFRYGYNNVVTIPAGATHWLV [I22W]

>  <protein stability index>
1.83

$$$$
>  <recordSequence>
SFRKFRYGYNIVVTIPAGATHILV [N11I]

>  <protein stability index>
2.04

$$$$
>  <recordSequence>
SFRKFRYGYSNVVTIPAGATHILV [N10S]

>  <protein stability index>
1.99

$$$$
>  <recordSequence>
SFRKFRYGYNNVVTIGAGATHILV [P16G]

>  <protein stability index>
2.36

$$$$
>  <recordSequence>
SFRLFRYGYNNVVTIPAGATHILV [K4L]

>  <protein stability index>
2.71

$$$$
>  <recordSequence>
SFRKFRYGYNNVQTIPAGATHILV [V13Q]

>  <protein stability index>
1.8

$$$$
>  <recordSequence>
SFAKFRYGYNNVVTIPAGATHILV [R3A]

>  <protein stability index>
2.45

$$$$
>  <recordSequence>
SFRKFRYGYQNVVTIPAGATHILV [N10Q]

>  <protein stability index>
1.94

$$$$
>  <recordSequence>
SFRKFRYGYNNVVTIPAFATHILV [G18F]

>  <protein stability index>
2.3

$$$$
>  <recordSequence>
SFLKFRYGYNNVVTIPAGATHILV [R3L]

>  <protein stability index>
3.11

$$$$
>  <recordSequence>
SFRKFRYGYNAVVTIPAGATHILV [N11A]

>  <protein stability index>
3.51

$$$$
>  <recordSequence>
SFRKFRYGYNNAVTIPAGATHILV [V12A]

>  <protein stability index>
2.25

$$$$
>  <recordSequence>
SFRKFRYGLNNVVTIPAGATHILV [Y9L]

>  <protein stability index>
2.75

$$$$
>  <recordSequence>
SFRKFRYGYCNVVTIPAGATHILV [N10C]

>  <protein stability index>
2.65

$$$$
>  <recordSequence>
SFRKFRYGYNNVVTIPAGATHILI [V24I]

>  <protein stability index>
2

$$$$
>  <recordSequence>
SFRKFRYGYNNVVTIPAGATRILV [H21R]

>  <protein stability index>
2.32

$$$$
>  <recordSequence>
SFRKFIYGYNNVVTIPAGATHILV [R6I]

>  <protein stability index>
2.3

$$$$
>  <recordSequence>
SFRKFHYGYNNVVTIPAGATHILV [R6H]

>  <protein stability index>
2.76

$$$$
>  <recordSequence>
SFRKFRCGYNNVVTIPAGATHILV [Y7C]

>  <protein stability index>
2.84

$$$$
>  <recordSequence>
SFRKFRYGYNNVVTIPAGATHRLV [I22R]

>  <protein stability index>
1.88

$$$$
>  <recordSequence>
SFRKFRYGYNNVVTIPAAATHILV [G18A]

>  <protein stability index>
1.72

$$$$
>  <recordSequence>
SFRKFRYGYNNVVTIPAGATPILV [H21P]

>  <protein stability index>
1.28

$$$$
>  <recordSequence>
SFRKFRYGRNNVVTIPAGATHILV [Y9R]

>  <protein stability index>
2.46

$$$$
>  <recordSequence>
SFWKFRYGYNNVVTIPAGATHILV [R3W]

>  <protein stability index>
2.24

$$$$
>  <recordSequence>
SFRKFRYGYNNVVTIPAGAPHILV [T20P]

>  <protein stability index>
3.21

$$$$

# credit: the supplement of paper PMC10567573
